Data provenance: PubChem BioAssay (NCI)

test system: SF-295 CNS; assay: NCI-60 one-dose screen, 48 h; conditions: 10 µM unless noted
Compounds without any hit were thinned out: in the full panel of roughly 83,000, 20% have a hit. Calls of active or inactive are those of the source. Rule for the calls: active = growth percent below 10; inactive = the rest.
Reply using exactly one outcome from yes (1) (active), no (0) (inactive)

Known results for compounds:
Called result for `Clc1ccc(-c2nc(-c3c[nH]c4ncccc34)cs2)cc1`
no (0)

Called result for `N=C(N)c1ccc(-c2ccc(-c3ccc(Cl)cc3)o2)o1`
no (0)

Called result for `COc1ccc(C2=C/C(=C\c3ccc(Cl)cc3)C(=O)N2/N=C/c2ccc(Cl)cc2)cc1`
no (0)

Called result for `CCCCCCNc1nc(NCCCCCC)c2[nH]c(NCCCCCC)nc2n1`
no (0)

Called result for `CCN(CC)c1ccc(/C=N\NC(=O)c2cccc(Nc3ccnc(C(F)(F)F)c3)c2)c(O)c1`
no (0)

Next:
Called result for COc1ccc(NC(=O)c2cccc(C3CCc4c(cc(OC)c(OC)c4OC)O3)c2)cc1 (configuration not stated)
no (0)

Called result for `CC(C)CSc1oc(-c2ccccc2)nc1S(=O)(=O)c1ccccc1`
no (0)

Called result for CC(CN)[C@@H]1CC[C@]2(CO)CC[C@]3(C)[C@H](CC[C@@H]4[C@@]5(C)CCC(N)C(C)(C)[C@@H]5CC[C@]43C)[C@@H]12 (some centres not stated)
no (0)

Called result for CC12CCC(/C(=C/NNc3ccc([N+](=O)[O-])cc3[N+](=O)[O-])C1=O)C2(C)C (configuration not stated)
no (0)

Called result for `CCCCCCCC/C=C\CCCCCCCCOc1ccccc1CC(=O)NCC[N+]1(C)CCCCC1`
no (0)

Called result for `C=C1C(=O)O[C@H]2[C@H]1CC/C(Cn1cc(-c3cc(C(F)(F)F)cc(C(F)(F)F)c3)nn1)=C\CC[C@@]1(C)O[C@@H]21`
yes (1)

Called result for `Oc1c(Cl)cc(Cl)c2ccc(Cn3cc(-c4cccc(C(F)(F)F)c4)nn3)nc12`
no (0)

Called result for `Cc1cc2nc(-c3c(-c4ccc(F)cc4)nc4sccn34)[nH]c2cc1C`
no (0)

Called result for `CCn1cc(C(=O)NN=C2CCCCCC2)c(=O)c2ccc(C)nc21`
no (0)

Called result for `O=C(Nc1ncc(Cc2ccccc2Cl)s1)c1cccs1`
no (0)

Called result for `C=C1C(=O)O[C@H]2[C@H]1CC/C(COC(=O)NCc1ccc(Cn3c(=O)sn(-c4ccc(OC)cc4)c3=O)cc1)=C\CC[C@@]1(C)O[C@@H]21`
no (0)

Called result for O=C(/C=C/C12c3ccccc3C(c3ccccc31)C1C(=O)NC(=O)C12)c1ccccn1 (configuration not stated)
no (0)

Called result for `O=C(/C=C/c1ccc(Br)cc1)c1ccc(-n2cc(CN3CCN(c4cc5c(cc4F)c(=O)c(C(=O)O)cn5C4CC4)CC3)nn2)cc1`
no (0)

Called result for `O=C1/C(=C/c2cccc([N+](=O)[O-])c2)COc2ccc(O)cc21`
no (0)

Called result for `Cc1cc(C)c(-c2c(O)c(Br)c(-c3c(C)cc(C)c(Br)c3C)c(O)c2Br)c(C)c1Br`
yes (1)

Called result for CC1=NN(c2ccc(Cl)cc2)CC1(C)N=O (configuration not stated)
no (0)

Called result for `C=CC(=O)N1CCN(c2ccc3cccc(NC(=O)c4cnc(C)cn4)c3n2)CC1`
no (0)

* * *

test system: MCF7 breast; experiment: NCI-60 one-dose screen, 48 h; conditions: 10 µM unless noted
The panel holds about 83,000 compounds, 20% with a hit somewhere; the sample as a whole holds those more often. Calls of active or inactive are those of the source. How the source made its calls: active means growth percent below 10; inactive means the rest.
Reply using exactly one outcome from Yes for active, No for inactive

Called result for `CC1(C)CC2=C3C=C[C@@H]4[C@@]5(C)CC[C@H](O)C(C)(C)[C@@H]5CC[C@@]4(C)[C@]3(C)CC[C@@]2(C(=O)O)CC1=O`
No

Called result for COc1ccc(C(c2cc(OC)c(OC)c(OC)c2)N2CCN(Cc3ccccc3)CC2)cc1 (stereo unspecified)
No

Called result for Nc1c(C(=O)Nc2ccccn2)sc2nc3c(cc12)C(O)CCC3 (stereo unspecified)
No

Called result for `Cc1c2cc[nH]c(=O)c2c(C)c2c1[nH]c1ccc(OC(=O)c3ccccc3)cc12`
No

Called result for `CCOC(=O)/C=C/c1c(C)[nH]c(=O)[nH]c1=O`
No

Called result for `Cc1ccc(-c2nc(C(Cl)Cl)nc3cc(C)nn23)cc1`
No

Called result for `COC(=O)c1ccc2c(c1)c1c(C)c3ccncc3c(C)c1n2C`
Yes

Called result for `COc1ccc2c(c1)c(-c1nc(-c3cn(C)c4ncccc34)cs1)cn2CCO`
No

Called result for `N#Cc1c(-c2cccc([N+](=O)[O-])c2)cc(-c2ccc(Nc3nc(Nc4ccc(F)cc4)nc(Nc4ccc(F)cc4)n3)cc2)nc1N`
No

Called result for `O=C(CBr)CN1C(=O)c2ccccc2C1=O`
No

Called result for `CCN(CC)CCNC(=O)c1ccc(-c2nc3ccc4[nH]ncc4c3c3c2CCCC3)cc1`
No

* * *

system: NCI-H322M lung; assay: NCI-60 one-dose screen, 48 h (100 = growth as untreated, 0 = no growth, -100 = all killed); settings: 10 µM unless noted
This is part of a sample that, as a whole, favours compounds with a hit. Of some 83,000 tested, about 20% had one in any assay.
measurementName: growth (%)
Only the number, expressed in %, is required.

The reported value for `Cc1cc(C(=O)Nc2cc(Nc3ncccc3-c3ncnc4nc[nH]c34)ccc2F)cc(C(F)(F)F)c1` in terms of growth is 106

The reported value for `O=C(CN1C(=O)/C(=C/c2ccco2)SC1=S)NCCc1c[nH]c2ccc(F)cc12` in terms of growth is 102

The reported value for `O=C(CSc1nc2ccc([N+](=O)[O-])cc2[nH]1)Nc1cccc([N+](=O)[O-])c1` in terms of growth is 83.5

The reported value for `O=C1NC(=Nc2ccc(O)cc2)S/C1=C\c1cccs1` in terms of growth is 35.3

Next:
The reported value for `COc1cccc(/C=C2\COc3ccc(O)cc3C2=O)c1` in terms of growth is 106

* * *

test system: HOP-62 NSCLC; assay: NCI-60 one-dose screen, 48 h; conditions: 10 µM unless noted
About 83,000 compounds went through this panel and 20% of them were active in at least one assay; those are over-represented in the sample as a whole. Calls of active or inactive are those of the source. The calls were made as follows: active = growth percent below 10; inactive = the rest.
Reply using exactly one outcome from active, inactive

Known results for molecules:
Called result for `O=C1/C(=C/c2cccc([N+](=O)[O-])c2)COc2ccc(O)cc21`
inactive

Called result for `Cc1ccc2[nH]c(-c3ccc(S(C)(=O)=O)cc3)c(/C=N/N=C(N)N)c2c1`
inactive

Next:
Called result for `Cn1c(/C=C/[N+](=O)[O-])cc2ccccc21`
inactive

* * *

The entries below come with measured growth values attached.
test system: HCT-116 colon; assay: NCI-60 one-dose screen, 48 h (100 = growth as untreated, 0 = no growth, -100 = all killed); settings: 10 µM unless noted
About 83,000 compounds went through this panel and 20% of them were active in at least one assay; those are over-represented in the sample as a whole.
Only the number, expressed in %, is required.

Fill in: HCT-116 colon growth for `N=C(N)c1ccc(-c2ccc(-c3ccc(F)cc3)s2)s1` = -57.3

Next:
Fill in: HCT-116 colon growth for CCOC(=O)c1c(C)nn(CC(O)c2ccccc2)c1NC(=O)Nc1cccc(F)c1 (stereo not given) = 84

Fill in: HCT-116 colon growth for `C=C(CN1CC=CCC1)[C@@H]1CC[C@]2(CO)CC[C@]3(C)[C@H](CC[C@@H]4[C@@]5(C)CC[C@H](O)C(C)(C)[C@@H]5CC[C@]43C)[C@@H]12` = 94.4

Fill in: HCT-116 colon growth for `N#C/C(=C\c1ccc(Br)cc1)c1cc2ccccc2[nH]1` = 84.7

Fill in: HCT-116 colon growth for `O[C@@H](c1cc(C(F)(F)F)nc2c(C(F)(F)F)cccc12)[C@H]1CCCCN1` = 36.1

* * *

System: OVCAR-3 ovarian
Experiment: NCI-60 one-dose screen, 48 h (100 = growth as untreated, 0 = no growth, -100 = all killed)
Conditions: 10 µM unless noted
Description: Growth inhibition of the OVCAR-3 human tumor cell line is measured as a screen for anti-cancer activity. Cells are grown in 96 well plates and exposed to the test compound for 48 hours. Compounds are tested at a single concentration, which is 10^-5 M for most compounds. The reported endpoint is percent growth (GI% or GIPRCNT), where numbers from 0 - 100% represent growth inhibition, and numbers from -100% - 0 represent cell death. For example, a value of 40 represents 60% growth inhibition. […]
The panel holds about 83,000 compounds, 20% with a hit somewhere; the sample as a whole holds those more often.
Label True when growth >= 90%; otherwise False.

Known results for compounds:
Form field: growth at least 90%? Entry: `Brc1ccc(-c2cnc3nonc3n2)cc1`
False

Form field: growth at least 90%? Entry: O=c1[nH]cnc2c1C(c1ccc(Br)cc1)c1sc3c(F)cccc3c1O2 (stereo unspecified)
True

Form field: growth at least 90%? Entry: `CC1(C)CCC(S(=O)(=O)c2ccc3c(c2)/C(=N\O)c2cc(S(=O)(=O)N4CCN(c5ccc(F)cc5O)CC4)ccc2-3)CC1`
False

Form field: growth at least 90%? Entry: C=CCOC(=O)C1=C(C)NC(=O)NC1c1c(Cl)n(C)c2ccccc12 (stereo unspecified)
True

Form field: growth at least 90%? Entry: `CCOC(=O)n1cc(-c2nonc2-c2cn(C)c3ccccc23)c2ccccc21`
False

Form field: growth at least 90%? Entry: `Cc1cc2oc(=O)cc(CP(=O)(O)O)c2cc1O`
True

Next:
Form field: growth at least 90%? Entry: COc1cccc(NC(=O)c2cccc(C3CCc4c(cc(OC)c(OC)c4OC)O3)c2)c1 (stereo unspecified)
False

Form field: growth at least 90%? Entry: COc1cc(N2C(=O)[C@H](c3ccccc3)C2c2ccc(SC)cc2)cc(OC)c1OC (stereo partly specified)
False

Form field: growth at least 90%? Entry: `CCNCc1ccc(O)c2ncccc12`
False
